Where these numbers come from: the PETadex activity labels (doi:10.1016/j.bbalip.2005.11.003)

- Substrate: tributyrin
- Assay conditions: pH 7; 25 °C
Endpoint: Km (µM)
Give bare numbers, in µM.

What does the data say about its Km? Entry: unnamed (protein) MRSSLVLFFVSAWTALASPIRREVSQDLFNQFNLFAQYSAAAYCGKNNDAPAGTNITCTGNACPEVEKADATFLYSFEDSGVGDVTGFLALDNTNKLIVLSFRGSRSIENWIGNLNFDLKEINDICSGCRGHDGFTSSWRSVADTLRQKVEDAVREHPDYRVVFTGHSLGGALATVAGADLRGNGYDIDVFSYGAPRVGNRAFAEFLTVQTGGTLYRITHTNDIVPRLPPREFGYSHSSPEYWIKSGTLVPVTRNDIVKIEGIDATGGNNQPNIPDIPAHLWYFGLIGTCL
500
